biological target: Mouse CatL (mCatL) (Mus musculus); test: kinact/KI^app determination, mouse CatL; format: biochemical
Sequence (P06797 114-334): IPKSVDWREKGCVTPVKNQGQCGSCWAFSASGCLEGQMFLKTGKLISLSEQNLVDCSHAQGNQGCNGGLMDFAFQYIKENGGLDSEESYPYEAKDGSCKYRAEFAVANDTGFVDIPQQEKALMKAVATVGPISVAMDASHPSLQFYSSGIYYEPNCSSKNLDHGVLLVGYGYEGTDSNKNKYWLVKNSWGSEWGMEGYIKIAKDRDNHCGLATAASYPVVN
readoutType: kinact
Note to self: number, then unit, no commentary.

Record summary for COC1=CC(=O)N(C(=O)/C=C/[C@H](CCc2ccccc2)NC(=O)[C@H](CC(C)C)NC(=O)[C@H](CC(C)C)NC(=O)[C@H](C(C)C)N(C)C)[C@H]1Cc1c[nH]c2ccccc12 : reported kinact = 0.0096 s⁻¹

Record summary for COC1=CC(=O)N(C(=O)/C=C/[C@H](C)NC(=O)[C@H](CC(C)C)NC(=O)[C@H](CC2CCCCC2)NC(=O)C2CCN(C)CC2)[C@H]1Cc1c[nH]c2ccccc12 : reported kinact = 0.00856 s⁻¹

Record summary for CC[C@H](C)[C@@H](C(=O)O[C@@H](CC(C)C)C(=O)N[C@@H](CC(C)C)C(=O)N[C@@H](C)/C=C/C(=O)N1C(=O)C=C(OC)[C@@H]1C)N(C)C [compound 1, gallinamide A] : reported kinact = 0.00569 s⁻¹

Record summary for COC1=CC(=O)N(C(=O)/C=C/[C@H](C)NC(=O)[C@H](CC(C)C)NC(=O)[C@H](CC(C)C)NC(=O)C2CCN(C)CC2)[C@H]1Cc1c[nH]c2ccccc12 : reported kinact = 0.00319 s⁻¹

Record summary for COC1=CC(=O)N(C(=O)/C=C/[C@H](C)NC(=O)[C@H](CCc2ccccc2)NC(=O)[C@H](CC2CCCCC2)NC(=O)[C@H](C(C)C)N(C)C)[C@H]1Cc1c[nH]c2ccccc12 : reported kinact = 0.00224 s⁻¹

Data provenance is paper PMC8577376.
